tgt: HIV-1 protease (Human immunodeficiency virus type 1 group M subtype B)
Construct: Purified HIV-1 protease was obtained as described below; made in house; host or cells: E. coli K12 L507/pHP10D (NRRL B-18560)
assayInfo: biochemical
testConditions: read-out: Fluorescence Assay IC50 (converted)
For each of the compounds below, state its IC50.
Number only, in nM; omit the unit.

get_value(item= `CC(C)(C)NC(=O)c1oc2ccccc2c1C[C@@H](O)[C@H](Cc1ccccc1)NC(=O)[C@H](CC(N)=O)NC(=O)c1ccc2ccccc2n1` , readout=IC50) returns 523

get_value(item= `CC(C)c1ccc(C(=O)NC(C)(C)C)c(C[C@@H](O)[C@H](Cc2ccccc2)NC(=O)[C@H](CC(N)=O)NC(=O)c2ccc3ccccc3n2)c1` , readout=IC50) returns 0.23

get_value(item= CC(C)(C)NC(=O)c1ccccc1C[C@@H](O)[C@H](Cc1ccccc1)NC(=O)[C@H](CC(N)=O)NC(=O)C1Cc2ccccc2CN1 (single isomer, unassigned) [Example 37] , readout=IC50) returns 34.2

get_value(item= `CC(C)(C)NC(=O)c1ccccc1C[C@@H](O)[C@H](Cc1ccccc1)NC(=O)[C@H](CC(N)=O)NC(=O)NCc1cccc2ccccc12` , readout=IC50) returns 2.82

get_value(item= `CC(C)(C)NC(=O)c1ccccc1C[C@@H](O)[C@H](Cc1ccccc1)NC(=O)[C@H](CC(N)=O)NC(=O)c1ccccc1` , readout=IC50) returns 12.5

get_value(item= `CC(C)(C)NC(=O)c1ccccc1C[C@@H](O)[C@H](Cc1ccccc1)NC(=O)[C@H](CCC(N)=O)NC(=O)c1ccc2ccccc2n1` , readout=IC50) returns 78.6
